- experimental_protocol: Disassociation constant (KI) was obtained from Cheng and Prusoff equation for quercetin trypsin complex
Rule: measured Ki below 30 µM gets 1.0; anything equal to or greater than 30 µM gets 0.0.

{"chemical_structure": "O=c1c(O)c(-c2cc(O)c(O)c(O)c2)oc2cc(O)cc(O)c12", "classification": 1.0}
{"chemical_structure": "O=c1c(O)c(-c2ccc(O)c(O)c2)oc2cc(O)cc(O)c12", "classification": 1.0}
{"chemical_structure": "COc1cc([C@@H]2Oc3c(O)cc([C@H]4Oc5cc(O)cc(O)c5C(=O)[C@@H]4O)cc3[C@H]2CO)ccc1O", "classification": 0.0}
{"chemical_structure": "O=c1cc(-c2ccc(O)c(O)c2)oc2cc(O)cc(O)c12", "classification": 1.0}
{"chemical_structure": "O=c1cc(-c2ccc(O)cc2)oc2cc(O)cc(O)c12", "classification": 0.0}

###

- tested_on: Serine protease 1 (Bos taurus, UniProt P00760)
- Sequence (P00760 whole entry): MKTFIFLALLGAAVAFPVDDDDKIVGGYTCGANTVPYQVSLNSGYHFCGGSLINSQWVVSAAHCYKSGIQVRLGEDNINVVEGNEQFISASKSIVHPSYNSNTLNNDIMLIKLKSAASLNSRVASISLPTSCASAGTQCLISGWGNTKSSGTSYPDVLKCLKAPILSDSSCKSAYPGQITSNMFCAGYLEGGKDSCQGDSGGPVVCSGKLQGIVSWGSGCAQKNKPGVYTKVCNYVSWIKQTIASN
log10(IC50) overview
quantity_measured: log10(IC50) (log10 of the value in µM)

{"chemical_structure": "O=c1cc(-c2ccc(O)c(O)c2)oc2cc(O)cc(O)c12", "tested_on": "Serine protease 1 (Bos taurus, UniProt P00760)", "log10(IC50)": 1.55}
{"chemical_structure": "O=c1cc(-c2ccc(O)cc2)oc2cc(O)cc(O)c12", "tested_on": "Serine protease 1 (Bos taurus, UniProt P00760)", "log10(IC50)": 2.15}
{"chemical_structure": "O=c1c(O)c(-c2cc(O)c(O)c(O)c2)oc2cc(O)cc(O)c12", "tested_on": "Serine protease 1 (Bos taurus, UniProt P00760)", "log10(IC50)": 1.01}
{"chemical_structure": "O=c1c(O)c(-c2ccc(O)cc2)oc2cc(O)cc(O)c12", "tested_on": "Serine protease 1 (Bos taurus, UniProt P00760)", "log10(IC50)": 2.03}
{"chemical_structure": "COc1cc([C@@H]2Oc3c(O)cc([C@H]4Oc5cc(O)cc(O)c5C(=O)[C@@H]4O)cc3[C@H]2CO)ccc1O", "tested_on": "Serine protease 1 (Bos taurus, UniProt P00760)", "log10(IC50)": 2.16}
{"chemical_structure": "O=c1c(O)c(-c2ccc(O)cc2O)oc2cc(O)cc(O)c12", "tested_on": "Serine protease 1 (Bos taurus, UniProt P00760)", "log10(IC50)": 2.05}
